assay: soluble on expression in E. coli; label from the status in PepcDB or PDB records
Measurement Label: soluble on expression in E. coli

- GPGSMSLVESQKGMTDLIPCNEQCGGDYGNYSFGQGDLDVTVTVPLPENTTKKMLLVQITASKLIVGLRGKPPIISGDFYRPVKASECTWCIEDKRLLVINMVKTNSQHEEWWPCVVVGERQIDMKTLKPPSKHVSELDESAQATIAKMMFDQRQKMQNLPTSEEMRLQEMMRAAQGAK: soluble
- MAHHHHHHMGCFNSTDAVADQDPASGYMYTKPNAKGTKEALFGGLLYRITDEEEGGLAFYNNSKDYEFHIKYLFGADSELNAVGDTKLEMQDDGILAEVVVYPLETKPFVQGTIDGYETKLEALPLSEEYFALHPEIDEAAYYRRLEAPKSSRF: soluble
- MGSDKIHHHHHHKTTTAVQLADTFAFMRQKKVLVLDLDPQTNATLALVGEERWEQADERGQTLAHLFLDLLNGTRNFNPERAIVRGASNLNTIPPEVFDQLPESAQYGRVDVLPSSIRLIDVQDRMQDIANRTNYSLSPMAVVQKYIGPLFGRYDYVLIDCPPNLGFITQNGLEVSDHYLIPTIPDRMSTYGIPQIAGKIDELRRDRDLKIRCLGVVVTKFQSNSSQHKQGLEHLPEYLRSAFAYTNEDTPPILNTVMPQTNASAEAMLFERDVRNYPVKYGSGAVAGQAAYKYGLDLAAEVQALLGDEDEA: not soluble
- MAVDDAQALALFLRDRTGRSSHTLRAYGAELRRLMRWCGTHGFGPFSDLTRQQLLAYRHTLEHGSSGTANTTPPLSEATRTRALAVVASLYGYWYATGYLHANPAAGLSAGSRLEHHHHHH: not soluble
